Attribution: a melting point compilation (Tetko et al.)

property.measured: melting point

>>> value_measured("CC(C)(C)Cc1noc2nc(C3CC3)cc(C(=O)O)c12")
"164 to 166 °C"
>>> value_measured("COC(=O)C(Cc1c[nH]cn1)NC(=O)CCc1ccccc1 (stereo not drawn)")
"152 to 154 °C"
>>> value_measured("O=C(O)c1ccc(Cn2cc(Cl)cn2)o1")
"117 to 119 °C"
>>> value_measured("CC(=O)NCCc1ccc(S(=O)(=O)Cl)cc1")
"131 to 133 °C"
>>> value_measured("N#Cc1ccccc1OCc1ccccc1")
"70 to 72 °C"
>>> value_measured("O=C(O)C1CC2CCCCC2N1C(=O)c1ccc(F)cc1F (stereo not drawn)")
"189 to 191 °C"
>>> value_measured("Nc1ncc(Cc2ccc(Cl)cc2)s1")
"127 to 129 °C"
>>> value_measured("CCOC(=O)CS(=O)(=O)Cc1ccccc1")
"49 to 51 °C"
>>> value_measured("Cc1cccc(C)c1-n1nnnc1S")
"146 to 148 °C"
>>> value_measured("Nc1ccc(OCc2cccs2)cc1")
"61 to 63 °C"
>>> value_measured("CC(C)(C)c1ccc(-c2nnc(N)[nH]2)cc1")
"213 to 215 °C"
>>> value_measured("Cc1noc(C)c1COc1ccc(C=O)cc1")
"107 to 109 °C"
>>> value_measured("COC(=O)COc1ccc2cc(Br)ccc2c1")
"109 to 111 °C"
